Test system: MS2 coat protein
Test: apparent Kd, MS2 coat protein; higher = weaker binding; RNA-MaP array; tryptophan 2.4 mM where present
Settings: designed as: OFF switch for tryptophan; no ligand
As shown below, each of these sequences has a reported apparent Kd value.

- residue.string: "UAUAUAUAUCACUAACUGUUGUGGACGUCUCGAGGACCGGUACGGCCGCCACUCGGGCGGCCUCACAUGAGGAUCACCCAUGUCC"
  readout.units: "µM"
  apparent Kd: 0.125
- residue.string: "AUAUAUACAUGAGGAUCACCCAUGUUAUUACGAGGACCGGUACGGCCGCCACUCGAUAGAGUAGAAGUAAAUUGUAAUUCAUGUU"
  readout.units: "µM"
  apparent Kd: 0.0124
- residue.string: "GUUAUAUACUCGGCCGCCACUGAGAGAGUCAUGUAAACAUGAGGAUCACCCAUGUAAUAUAUAUACAGGACCGGGAGUAUGGUAA"
  readout.units: "µM"
  apparent Kd: 0.0143
- residue.string: "AGUAAUAAUAUAAAUAAUAUUAGGUCAUGGCGAGGACCGGUACGGCCGCCACUCGGUUACAUGAGGAUCACCCAUGUCCCGCUUA"
  readout.units: "µM"
  apparent Kd: 0.0305
- residue.string: "AGCACUGUGGCGGCCGCCACUACAUAUAGGGUGGUCAGGCCCAUAAUACAUGAGGAUCACCCAUGUAGGACCGGGCCUCAGUGCA"
  readout.units: "µM"
  apparent Kd: 0.015
- residue.string: "UAAUCAGUGCCGGUUCUCGGAUCCUCAUGUCGAGGACCGGUACGGCCGCCACUCGAAACAUGAGGAUCACCCAUGUAAUAAUAAU"
  readout.units: "µM"
  apparent Kd: 0.0896
- residue.string: "GUGUGGAGCUCGGCCGCCACUCAAACAUGAGGAUCACCCAUGUAAAACAUGAGGAUCACCCAUGUGAGGACCGGGAGAAACACGA"
  readout.units: "µM"
  apparent Kd: 0.338
